runConditions: in n-hexane, 323.15 K
metricName: solubility (mole fraction)
Numbers only.

Quick one: solubility (mole fraction) of COC(=O)[C@@H](N)CC(C)C.Cl ?
0.0012

* * *

runConditions: in ethyl acetate, 288.15 K
metricName: solubility (mole fraction)
Answers are plain numbers.

Quick one: solubility (mole fraction) of COC(=O)[C@@H](N)CC(C)C.Cl ?
0.000237

* * *

runConditions: in dimethyl carbonate, 283.15 K
metricName: solubility (mole fraction)
Give bare numbers.

Quick one: solubility (mole fraction) of COC(=O)[C@@H](N)CC(C)C.Cl ?
0.000287

* * *

runConditions: in acetone, 298.15 K
metricName: solubility (mole fraction)
Answers are plain numbers.

Quick one: solubility (mole fraction) of COC(=O)[C@@H](N)CC(C)C.Cl ?
0.00562

* * *

runConditions: in 1,4-dioxane, 323.15 K
metricName: solubility (mole fraction)
Give bare numbers.

Quick one: solubility (mole fraction) of COC(=O)[C@@H](N)CC(C)C.Cl ?
0.127

* * *

runConditions: in n-propyl acetate, 323.15 K
metricName: solubility (mole fraction)
Numbers only.

Quick one: solubility (mole fraction) of COC(=O)[C@@H](N)CC(C)C.Cl ?
0.00541

* * *

runConditions: in n-pentanol, 308.15 K
metricName: solubility (mole fraction)
One number for each entry.

Quick one: solubility (mole fraction) of COC(=O)[C@@H](N)CC(C)C.Cl ?
0.104

* * *

runConditions: in acetone, 308.15 K
metricName: solubility (mole fraction)
Give bare numbers.

Quick one: solubility (mole fraction) of COC(=O)[C@@H](N)CC(C)C.Cl ?
0.00806

* * *

runConditions: in acetonitrile, 323.15 K
metricName: solubility (mole fraction)
Answers are plain numbers.

Quick one: solubility (mole fraction) of COC(=O)[C@@H](N)CC(C)C.Cl ?
0.0162

* * *

runConditions: in n-pentanol, 318.15 K
metricName: solubility (mole fraction)
One number for each entry.

Quick one: solubility (mole fraction) of COC(=O)[C@@H](N)CC(C)C.Cl ?
0.137

* * *

runConditions: in methyl acetate, 283.15 K
metricName: solubility (mole fraction)
Give bare numbers.

Quick one: solubility (mole fraction) of COC(=O)[C@@H](N)CC(C)C.Cl ?
0.000388

* * *

runConditions: in n-pentanol, 303.15 K
metricName: solubility (mole fraction)
Numbers only.

Quick one: solubility (mole fraction) of COC(=O)[C@@H](N)CC(C)C.Cl ?
0.0917

* * *

runConditions: in methyl acetate, 298.15 K
metricName: solubility (mole fraction)
Give bare numbers.

Quick one: solubility (mole fraction) of COC(=O)[C@@H](N)CC(C)C.Cl ?
0.000834

* * *

runConditions: in n-butanol, 308.15 K
metricName: solubility (mole fraction)
One number for each entry.

Quick one: solubility (mole fraction) of COC(=O)[C@@H](N)CC(C)C.Cl ?
0.139
